# System: PPARg:RXRa 90nM:30nM, anti-RXR (NR concentration 90 nM, RXRa partner concentration 30 nM)
# protocolText: PBM binding z-score (relative to random genomic background probes); higher = stronger binding; sequences stand for … in GC…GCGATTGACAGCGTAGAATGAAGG
Class assignment keyed on PBM binding z-score, ranges group 1 = under 0.4, group 2 = from 0.4 up to 2, group 3 = 2 and over

Would you mind sorting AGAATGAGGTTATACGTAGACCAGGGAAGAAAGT into the appropriate category? group 2

Pending sequence:
Would you mind sorting CGAACTAGGTCAAGGACAGTGTATCTCCGCACGC into the appropriate category? group 3

* * *

# System: VDR:RXRa (NR concentration 270 nM, RXRa partner concentration 90 nM)
# protocolText: PBM binding z-score (relative to random genomic background probes); higher = stronger binding; sequences stand for … in GC…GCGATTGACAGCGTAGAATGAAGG
Assign Y to entries whose PBM binding z-score meets or exceeds 2; assign N to the rest.

Worked set:
Identify whether the reported PBM binding z-score of the following sequence is 2 or greater: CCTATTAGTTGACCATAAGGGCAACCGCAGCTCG N

Identify whether the reported PBM binding z-score of the following sequence is 2 or greater: CCTACTGGGCCAAAAAGCTCATTGATGCCGATAA N

Identify whether the reported PBM binding z-score of the following sequence is 2 or greater: ACCATTAGTTGAGACGAGGGCAACCGATAGGTTG N

Identify whether the reported PBM binding z-score of the following sequence is 2 or greater: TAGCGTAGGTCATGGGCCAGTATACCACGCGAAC Y

Identify whether the reported PBM binding z-score of the following sequence is 2 or greater: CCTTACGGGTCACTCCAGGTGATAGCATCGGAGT Y

Identify whether the reported PBM binding z-score of the following sequence is 2 or greater: CGAACTAGGTCATTGACTGGACAGTGAATAGTAA N

Identify whether the reported PBM binding z-score of the following sequence is 2 or greater: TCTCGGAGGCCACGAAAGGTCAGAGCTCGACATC Y

Identify whether the reported PBM binding z-score of the following sequence is 2 or greater: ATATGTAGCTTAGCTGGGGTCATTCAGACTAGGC Y

Further cases:
Identify whether the reported PBM binding z-score of the following sequence is 2 or greater: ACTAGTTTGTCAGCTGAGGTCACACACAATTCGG Y

Identify whether the reported PBM binding z-score of the following sequence is 2 or greater: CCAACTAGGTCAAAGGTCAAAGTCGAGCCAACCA Y

Identify whether the reported PBM binding z-score of the following sequence is 2 or greater: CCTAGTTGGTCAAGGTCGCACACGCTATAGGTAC N

Identify whether the reported PBM binding z-score of the following sequence is 2 or greater: TGAATGAGGTTATATGATCAGGGAACGTTGCAAA N

Identify whether the reported PBM binding z-score of the following sequence is 2 or greater: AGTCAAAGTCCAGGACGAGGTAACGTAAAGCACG N

Identify whether the reported PBM binding z-score of the following sequence is 2 or greater: CGTCCAAGGTCAATGCTAGGTCTGTGAAAGCATT Y

Identify whether the reported PBM binding z-score of the following sequence is 2 or greater: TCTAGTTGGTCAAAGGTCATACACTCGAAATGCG Y

Identify whether the reported PBM binding z-score of the following sequence is 2 or greater: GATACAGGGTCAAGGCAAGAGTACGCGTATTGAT Y

Identify whether the reported PBM binding z-score of the following sequence is 2 or greater: CAAACTAGGTCACCGGAAGGTCAAATTCCGCATG Y

Identify whether the reported PBM binding z-score of the following sequence is 2 or greater: CCTAGTTGGTCAGGAGATCACACACCGGATATGA N

Identify whether the reported PBM binding z-score of the following sequence is 2 or greater: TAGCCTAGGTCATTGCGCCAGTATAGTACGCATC Y

Identify whether the reported PBM binding z-score of the following sequence is 2 or greater: CCTACTGGGCCAAAGGGCATTGATTCCAATGCTC N

Identify whether the reported PBM binding z-score of the following sequence is 2 or greater: TCACCAAGGTGAAAGGTCGTTGATGCACGCCTTG Y

Identify whether the reported PBM binding z-score of the following sequence is 2 or greater: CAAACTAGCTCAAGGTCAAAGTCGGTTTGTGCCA Y

Identify whether the reported PBM binding z-score of the following sequence is 2 or greater: GCTATTAGTCGAAAGGGCAACCGAATGATTCTCG N

Identify whether the reported PBM binding z-score of the following sequence is 2 or greater: TATACAGGGTCAAAGGCCAGAATACGAATGTCGA Y

Identify whether the reported PBM binding z-score of the following sequence is 2 or greater: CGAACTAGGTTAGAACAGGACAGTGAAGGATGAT N

Identify whether the reported PBM binding z-score of the following sequence is 2 or greater: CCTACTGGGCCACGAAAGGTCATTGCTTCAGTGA Y

Data origin, for the record: the supplement of paper PMC6555819
